- Target or test system: kinase panel containing either 359 or 386 distinct kinases
- Assay method text: Selectivity score S10 from competition binding against a panel of kinases
- Condition label: compounds at 10 μM; panel of 359 distinct kinases
Property name: Kinase specificty: S(10)-359 panel

COc1nc(N)ncc1-c1ccc(NC(=O)Nc2cc(C(C)(C)C)on2)cc1 [Example 50] ... B (0.1<B≦0.2 nM)
CC(C)(C)c1cc(NC(=O)Nc2ccc(-c3ccc(N)nc3)c(F)c2)no1 [Example 11] ... A (A≦0.1)
CC(C)(C)c1cc(NC(=O)Nc2ccc(-c3cnc(CCCN4CCOCC4)nc3)cc2)no1 [Example 56] ... A (A≦0.1)
CC(CF)(CF)c1cc(NC(=O)Nc2ccc(-c3cnc(NCCN4CCOCC4)nc3)cc2)no1 [Example 52] ... B (0.1<B≦0.2 nM)
CC(C)(C)c1cc(NC(=O)Nc2ccc(-c3cnc(N)c(COCCO)c3)cc2)no1 [Example 22] ... B (0.1<B≦0.2 nM)

Input line: Write down the reported Kinase specificty: S(10)-359 panel of CC(C)(C)c1cc(NC(=O)Nc2ccc(-c3ccc(N)nc3)cc2F)no1 [Example 14] , test system: kinase panel containing either 359 or 386 distinct kinases.
Output line: B (0.1<B≦0.2 nM)

Input line: I'm curious: which Kinase specificty: S(10)-359 panel was measured for CN(C)CCNc1ncc(-c2ccc(NC(=O)Nc3cc(C(C)(C)C)on3)cc2)cn1 [Example 57] tested on kinase panel containing either 359 or 386 distinct kinases?
Output line: A (A≦0.1)
